target: USP22 zf-UBP domain (Homo sapiens); construct: USP22_zf-UBP; Q9UPT9; zf-UBP; 37; 130; 6xHis-GST (N, cleaved yes); made in house; host or cells: Escherichia coli BL21-Gold (DE3); test: FP-monitored affinity measurements, USP22 zf-UBP; type: binding; settings: USP22_zf-UBP; FP displacement by unlabelled peptide
Sequence (Q9UPT9 37-130): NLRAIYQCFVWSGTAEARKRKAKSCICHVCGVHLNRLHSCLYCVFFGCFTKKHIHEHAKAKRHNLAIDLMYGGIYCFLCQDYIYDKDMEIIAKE
pKd: −log10 of the molar value.
Readout label: pKd

Some entries whose results are on file:
Ac-VPSLDDFAGQSWSSWVERADLP-NH2 [ATXN7L2_18-39]    5.54
Ac-VPSPEAFLGKPWSSWID-NH2 [ATXN7L1_36-52]    4.96

(A) Ac-VPSPEAFLGKPWSSWIDAAKLH-NH2 [ATXN7L1_36-57]
(B) Ac-VPSLDDFAGQSWSSWVE-NH2 [ATXN7L2_18-34]
Looking at A and B , which one comes out lower in pKd terms? Mark your selection by writing its label. B

---

target: USP20 zf-UBP domain (Homo sapiens, UniProt Q9Y2K6); construct: USP20_UBP; Q9Y2K6; zf-UBP; 99; 6xHis-GST (N, cleaved yes); made in house; host or cells: Escherichia coli BL21-Gold (DE3); assay: FP-monitored affinity measurements, USP20 zf-UBP; type: binding; details: read-out: KD, USP20 zf-UBP
Sequence (Q9Y2K6 4-99): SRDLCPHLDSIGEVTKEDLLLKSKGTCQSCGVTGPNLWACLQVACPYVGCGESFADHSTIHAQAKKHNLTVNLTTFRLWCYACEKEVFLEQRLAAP
Ends that are not written are not given here.
Readout label: Kd

What measured Kd goes with EKVKRRLDLDID [CCP110_582-593] ? > 500 µM

---

target: USP20 DUSP2 domain (Homo sapiens); construct: USP20_DUSP2; Q9Y2K6; DUSP2; 776; 894; 6xHis-GST (N, cleaved yes); made in house; host or cells: Escherichia coli BL21-Gold (DE3); assay: Peptide SPOT array, USP20 DUSP2; type: binding; conditions: peptide SPOT array, USP20 DUSP2; average normalised to the highest intensity (ARNTL2 = 100);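 also: GST-tagged domain probed overnight at 4 °C on peptides made on cellulose membranes, bound protein detected via HRP-coupled anti-GST antibody, spot intensity from image analysis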
Sequence (Q9Y2K6 with tags, fused parts or gaps): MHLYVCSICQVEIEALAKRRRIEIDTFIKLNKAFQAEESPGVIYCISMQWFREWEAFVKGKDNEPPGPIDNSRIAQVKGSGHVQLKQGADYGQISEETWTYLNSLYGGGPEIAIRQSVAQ
Readout label: Normalize to higher intensity (%)

GGLTDLSSLIQAGQQF [SGTB]    15.16
KEQLSSFDISPREKLI [ARNTL2]    100
RLQKDIWDIQMRSKSL [GBP2]    28.85
EEDVLAFNLQHLATLA [BAHCC1_1]    -12.59
EGTEVAFPLLVSHRSQ [EMSY]    -0.2483

(P) ATLATAWSLVEAAGLD [BAHCC1_2]
(Q) KGHSRDFVLRRDLSAT [ZIC5]
(R) MNFNVWNIKEMLSIPS [IHO1]
(S) QPIDNSFDIQSRDCIS [MAP3K4]
// sort entries: Normalize to higher intensity (%), high to low I would appreciate it if you listed the labels in the requested order. Q, S, R, P
(Q: 40.47%, S: 22.41%, R: -4.916%, P: -8.681%)

---

molecular target: USP33 DUSP2 domain (Homo sapiens); construct: USP33_DUSP2; Q8TEY7; DUSP2; 806; 921; 6xHis-GST (N, cleaved yes); made in house; host or cells: Escherichia coli BL21-Gold (DE3); assay: FP-monitored affinity measurements, USP33 DUSP2; format: binding; settings: USP33_DUSP2; FP displacement by unlabelled peptide; read-out: KD
Sequence (Q8TEY7 with tags, fused parts or gaps): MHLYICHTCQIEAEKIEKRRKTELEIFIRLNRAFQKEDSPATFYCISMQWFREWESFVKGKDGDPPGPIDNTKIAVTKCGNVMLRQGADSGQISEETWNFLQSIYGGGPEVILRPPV
Readout label: Kd (µM)

PDVVDDFQLQHRHGPG [MFSD2B]    0.75

(1) QLEEELFQLRQGPAGL [CCDC88B]
(2) IPMDDDFQLRSFDQLS [HIF1A]
Hi, I'm comparing two records. Which one has the lower Kd, 1 or 2 ? State the label of the item chosen. 2
(2: 1.5 µM, 1: 40.1 µM)

This collection of values is drawn from paper PMC13376213.
